For each of the compounds below, state its Activity.
- system_tested: G-protein coupled bile acid receptor 1 (Mus musculus)
- assay_procedure: Agonist activity at mouse TGR5 expressed in HEK293 cells assessed CRE-induced luciferase activity after 5.5 hrs by reporter gene assay relative to control
- Type: functional, cell-based
- Design: concentration or dose not given beside the values
Provide the reading as a plain figure in %.

Please give measured Activity of the following entry: N#CC(NCc1cnccc1-c1c(F)cccc1F)c1cc(C(F)(F)F)cc(C(F)(F)F)c1 (racemic)
123

Output measured Activity for this item: `CC[C@H]1[C@@H](O)[C@@H]2[C@H](C[C@H](O)[C@]3(C)[C@@H]([C@H](C)C[C@H](C)C(=O)O)CC[C@@H]23)[C@@]2(C)CC[C@@H](O)C[C@@H]12`
100

Return value of Activity for input `O=C(c1ccco1)N(Cc1cnccc1-c1ccccc1F)S(=O)(=O)c1cc(C(F)(F)F)cc(C(F)(F)F)c1` , no commentary.
139

Fill in Activity for record `O=C(c1ccsc1)N(Cc1cc(C(F)(F)F)cc(C(F)(F)F)c1)Cc1cnccc1-c1ccccc1`
111

Indicate its recorded Activity; the compound in question is `O=S(=O)(NCc1cnccc1-c1ccccc1F)c1cc(C(F)(F)F)cc(C(F)(F)F)c1`
148

Check the records and state Activity for `O=C(c1ccccc1)N(Cc1cnccc1-c1ccccc1F)S(=O)(=O)c1cc(C(F)(F)F)cc(C(F)(F)F)c1`
144

* * *

- assay_procedure: AUC (0 to t) in Sprague-Dawley rat at 5 mg/kg, po
- Assay type: ADME, organism-based
- Parameters: dose 5 mg/kg, route oral
- test_settings: plasma
reported_property: AUC(0-t) (ng·h/mL)
# unit: ng·h/mL | format: bare number

Recall and state the measured AUC(0-t) for N#CC(NCc1cnccc1-c1ccccc1F)c1cc(C(F)(F)F)cc(C(F)(F)F)c1 (racemic) .
49.1

* * *

- assay_procedure: AUC (0 to infinity) in Sprague-Dawley rat at 5 mg/kg, po
- Format: ADME, organism-based
- Set-up: dose 5 mg/kg, route oral, time infinity
- test_settings: plasma
reported_property: AUC(0-inf) (ng·h/mL)
Report the value in ng·h/mL with no unit label.

Fill in reported AUC(0-inf) for this entry: N#CC(NCc1cnccc1-c1ccccc1F)c1cc(C(F)(F)F)cc(C(F)(F)F)c1 (racemic)
55

* * *

- system_tested: G-protein coupled bile acid receptor 1 (Homo sapiens) (UniProt Q8TDU6)
- Sequence (Q8TDU6 whole entry): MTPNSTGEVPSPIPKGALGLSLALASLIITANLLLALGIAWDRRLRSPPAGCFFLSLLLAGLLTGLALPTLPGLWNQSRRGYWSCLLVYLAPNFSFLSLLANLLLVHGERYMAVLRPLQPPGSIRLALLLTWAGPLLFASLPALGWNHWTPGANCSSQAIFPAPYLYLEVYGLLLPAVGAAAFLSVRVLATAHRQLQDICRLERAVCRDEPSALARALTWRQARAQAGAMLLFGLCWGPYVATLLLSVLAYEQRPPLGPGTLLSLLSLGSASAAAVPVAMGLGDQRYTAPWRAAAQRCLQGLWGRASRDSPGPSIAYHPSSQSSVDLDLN
- assay_procedure: Agonist activity at human TGR5 expressed in HEK293 cells assessed CRE-induced luciferase activity at 10 uM after 5.5 hrs by reporter gene assay
- Assay type: functional, cell-based
Please provide measured Activity for the entries that follow.
Report as a plain number; the unit % is understood.

Give a short answer stating reported Activity for `O=C(C1CCCCC1)N(Cc1cc(C(F)(F)F)cc(C(F)(F)F)c1)Cc1cnccc1-c1ccccc1` .
19

Supply Activity value. Item: `O=S(=O)(NCc1c(-c2ccccc2F)ccnc1-c1ccccc1)c1cc(C(F)(F)F)cc(C(F)(F)F)c1`
18

Read off the recorded Activity for `NCc1cnccc1-c1ccccc1F`
1

Please supply the value of reported Activity for the item `O=C(NCc1cnccc1-c1ccccc1F)c1cc(C(F)(F)F)cc(C(F)(F)F)c1`
46

Answer with the recorded Activity for the compound listed here: O=C(O)C(NCc1cnccc1-c1ccccc1F)c1cc(C(F)(F)F)cc(C(F)(F)F)c1 (stereo unspecified)
16

Fill in reported Activity for this entry: `CCOc1nccc(-c2ccccc2F)c1CNS(=O)(=O)c1cc(C(F)(F)F)cc(C(F)(F)F)c1`
18

* * *

- assay_procedure: Half life in Sprague-Dawley rat at 5 mg/kg, po
- Format: ADME, organism-based
- Design: dose 5 mg/kg, route oral
- test_settings: in vivo
reported_property: half-life (h)
Quick reminder: number only, in h, skip the unit.

Name the recorded half-life of the compound listed here: N#CC(NCc1cnccc1-c1ccccc1F)c1cc(C(F)(F)F)cc(C(F)(F)F)c1 (racemic)
2.3

* * *

- assay_procedure: Cmax in Sprague-Dawley rat at 5 mg/kg, po
- Format: ADME, organism-based
- Set-up: dose 5 mg/kg, route oral
- test_settings: in vivo
reported_property: Cmax (ng/mL)
Please respond with the number in ng/mL and leave the unit unwritten.

// Input: N#CC(NCc1cnccc1-c1ccccc1F)c1cc(C(F)(F)F)cc(C(F)(F)F)c1 (racemic) . Output its Cmax only.
16.3

* * *

- system_tested: G-protein coupled bile acid receptor 1 (Homo sapiens)
- assay_procedure: Agonist activity at human TGR5 expressed in HEK293 cells assessed CRE-induced luciferase activity after 5.5 hrs by reporter gene assay
// returns not fulfilled unless EC50 is strictly below 300 nM, in which case fulfilled

Lab note: EC50 threshold 300 nM. Does this compound come in strictly under it? N#CC(NCc1cnccc1-c1ccccc1)c1cc(C(F)(F)F)cc(C(F)(F)F)c1 (racemic)
fulfilled

Does the reported EC50 of the following compound sit strictly below 300 nM? N#CC(NCc1cnccc1-c1c(F)cccc1F)c1cc(C(F)(F)F)cc(C(F)(F)F)c1 (racemic)
fulfilled

For this compound, is EC50 lower than 300 nM? CC(NCc1cnccc1-c1ccccc1F)c1cc(C(F)(F)F)cc(C(F)(F)F)c1 (racemic)
fulfilled

Hello, I'm reviewing records and need to know if EC50 of `O=C(c1ccsc1)N(Cc1cnccc1-c1ccccc1F)S(=O)(=O)c1cc(C(F)(F)F)cc(C(F)(F)F)c1` is below 300 nM. Could you check?
fulfilled

Threshold test, EC50 < 300 nM: `O=S(=O)(NCc1cnccc1-c1ccccc1F)c1cc(C(F)(F)F)cc(C(F)(F)F)c1`
fulfilled

Input `O=C(c1ccoc1)N(Cc1cc(C(F)(F)F)cc(C(F)(F)F)c1)Cc1cnccc1-c1ccccc1` ; condition: EC50 strictly below 300 nM. Does it hold?
not fulfilled

Dear reviewer, please state whether `O=S(=O)(NCc1c(-c2ccccc2F)ccnc1Cl)c1cc(C(F)(F)F)cc(C(F)(F)F)c1` has EC50 strictly beneath 300 nM.
not fulfilled

Consider `O=C(c1ccc(Cl)cc1)N(Cc1cc(C(F)(F)F)cc(C(F)(F)F)c1)Cc1cnccc1-c1ccccc1` . Does its EC50 lie strictly below 300 nM?
not fulfilled

Lab note: EC50 threshold 300 nM. Does this compound come in strictly under it? N#CC(NCc1cnccc1-c1ccccc1F)c1cc(C(F)(F)F)cc(C(F)(F)F)c1 (racemic)
fulfilled

Consider N#CC(c1cc(C(F)(F)F)cc(C(F)(F)F)c1)N(Cc1ccco1)Cc1cnccc1-c1ccccc1F (racemic) . Does its EC50 lie strictly below 300 nM?
not fulfilled

Here's an entry: `CCC(=O)N(Cc1cc(C(F)(F)F)cc(C(F)(F)F)c1)Cc1cnccc1-c1ccccc1` . Is its EC50 below 300 nM?
not fulfilled

Record `O=C(c1cccs1)N(Cc1cc(C(F)(F)F)cc(C(F)(F)F)c1)Cc1cnccc1-c1ccccc1` : is its EC50 strictly below 300 nM?
fulfilled

* * *

- assay_procedure: Tmax in Sprague-Dawley rat at 5 mg/kg, po
- Format: ADME, organism-based
- Design: dose 5 mg/kg, route oral
- test_settings: in vivo
reported_property: Tmax

Please indicate Tmax recorded for N#CC(NCc1cnccc1-c1ccccc1F)c1cc(C(F)(F)F)cc(C(F)(F)F)c1 (racemic)
1.9 h

* * *

- assay_procedure: MRT (0 to t) in Sprague-Dawley rat at 5 mg/kg, po
- Type: ADME, organism-based
- Set-up: dose 5 mg/kg, route oral
- test_settings: in vivo
reported_property: MRT last (h)
# output: bare number, implied unit h

Give a short answer stating reported MRT last for N#CC(NCc1cnccc1-c1ccccc1F)c1cc(C(F)(F)F)cc(C(F)(F)F)c1 (racemic) .
2.6

* * *

Please go through the items and note down their pEC50.
- system_tested: G-protein coupled bile acid receptor 1 (Homo sapiens, UniProt Q8TDU6)
- Sequence (Q8TDU6 whole entry): as above
- assay_procedure: Agonist activity at human TGR5 expressed in HEK293 cells assessed CRE-induced luciferase activity after 5.5 hrs by reporter gene assay
pEC50 here: minus log base 10 of the concentration, concentration in moles per litre.

Provide the reported pEC50 (system: G-protein coupled bile acid receptor 1 (Homo sapiens, UniProt Q8TDU6)) for COC(=O)C(NCc1cnccc1-c1ccccc1F)c1cc(C(F)(F)F)cc(C(F)(F)F)c1 (configuration not stated)
6.36

Name the recorded pEC50 of `O=S(=O)(c1cc(C(F)(F)F)cc(C(F)(F)F)c1)N(Cc1ccccc1)Cc1cnccc1-c1ccccc1F` , assay system G-protein coupled bile acid receptor 1 (Homo sapiens, UniProt Q8TDU6).
5.68

Determine reported pEC50 for CCC(c1cc(C(F)(F)F)cc(C(F)(F)F)c1)N(Cc1cnccc1-c1ccccc1)C(=O)c1ccco1 (racemic) ; test system: G-protein coupled bile acid receptor 1 (Homo sapiens, UniProt Q8TDU6).
5.91

Report measured pEC50 on G-protein coupled bile acid receptor 1 (Homo sapiens, UniProt Q8TDU6); entry: `O=C(c1ccco1)N(Cc1cc(C(F)(F)F)cc(C(F)(F)F)c1)Cc1cnccc1-c1ccccc1F`
6.30

Report the value of pEC50 obtained on G-protein coupled bile acid receptor 1 (Homo sapiens, UniProt Q8TDU6) for `O=C(c1ccncc1)N(Cc1cc(C(F)(F)F)cc(C(F)(F)F)c1)Cc1cnccc1-c1ccccc1` .
5.39

Under G-protein coupled bile acid receptor 1 (Homo sapiens, UniProt Q8TDU6): report pEC50 of `O=C(c1ccccc1)N(Cc1cnccc1-c1ccccc1F)S(=O)(=O)c1cc(C(F)(F)F)cc(C(F)(F)F)c1` .
7.51

Report value only: pEC50, G-protein coupled bile acid receptor 1 (Homo sapiens, UniProt Q8TDU6), `O=S(=O)(NCc1cnccc1-c1c(F)cccc1F)c1cc(C(F)(F)F)cc(C(F)(F)F)c1`
7.21

Would you please give the reported pEC50 of `O=C(c1ccco1)N(Cc1cc(C(F)(F)F)cc(C(F)(F)F)c1)Cc1cnccc1-c1ccccc1` with G-protein coupled bile acid receptor 1 (Homo sapiens, UniProt Q8TDU6)?
6.33

Tell me its pEC50 on G-protein coupled bile acid receptor 1 (Homo sapiens, UniProt Q8TDU6): `O=C(c1ccsc1)N(Cc1cc(C(F)(F)F)cc(C(F)(F)F)c1)Cc1cnccc1-c1ccccc1`
6.92

Identify measured pEC50 obtained with G-protein coupled bile acid receptor 1 (Homo sapiens, UniProt Q8TDU6) for `CC(=O)N(Cc1cc(C(F)(F)F)cc(C(F)(F)F)c1)Cc1cnccc1-c1ccccc1` .
6.04

Using G-protein coupled bile acid receptor 1 (Homo sapiens, UniProt Q8TDU6) as the test system, report measured pEC50 of `Fc1ccccc1-c1ccncc1CNCc1cc(C(F)(F)F)cc(C(F)(F)F)c1` .
6.34

# assay system G-protein coupled bile acid receptor 1 (Homo sapiens, UniProt Q8TDU6): give pEC50 of CC(c1cc(C(F)(F)F)cc(C(F)(F)F)c1)N(Cc1cnccc1-c1ccccc1)C(=O)c1ccco1 (racemic)
6.51

Report pEC50 on G-protein coupled bile acid receptor 1 (Homo sapiens, UniProt Q8TDU6) for this entry: CCCN(Cc1cnccc1-c1ccccc1F)C(C#N)c1cc(C(F)(F)F)cc(C(F)(F)F)c1 (racemic)
6.33

Output reported pEC50 of the compound `O=C(c1ccccc1)N(Cc1cc(C(F)(F)F)cc(C(F)(F)F)c1)Cc1cnccc1-c1ccccc1` on G-protein coupled bile acid receptor 1 (Homo sapiens, UniProt Q8TDU6).
6.46

Provide pEC50, tested on G-protein coupled bile acid receptor 1 (Homo sapiens, UniProt Q8TDU6), for `O=C(c1ccco1)N(Cc1cnccc1-c1ccccc1F)S(=O)(=O)c1cc(C(F)(F)F)cc(C(F)(F)F)c1` .
7.49

Report value: pEC50, system: G-protein coupled bile acid receptor 1 (Homo sapiens, UniProt Q8TDU6), compound: `FC(F)(F)c1cc(CNCc2cnccc2-c2ccccc2)cc(C(F)(F)F)c1`
6.24

GET pEC50 | system: G-protein coupled bile acid receptor 1 (Homo sapiens, UniProt Q8TDU6) | item: CCC(NCc1cnccc1-c1ccccc1F)c1cc(C(F)(F)F)cc(C(F)(F)F)c1 (racemic)
6.42

Data origin: ChEMBL document CHEMBL2434932
